Origin of measurements: patent US8927717B1

Some compounds, each annotated with its measured Growth percent.
Test system: NCI-H522
Assay type: cell-based
Conditions: NCI-H522; 10^−5 molar
Numbers only; they are read as %.

Reference set (4 entries):
COc1ccc(CCNc2nc3ccccc3c3c(=O)c4cc(Cl)ccc4sc23)cc1	93.69
O=c1c2cc(Cl)ccc2sc2c(NC3CCCCC3)nc3ccccc3c12	83.95
O=c1c2cc(Cl)ccc2sc2c(NCCCNCCO)nc3ccccc3c12	−59.68
O=c1c2cc(Cl)ccc2sc2c(NCCc3ccccc3)nc3ccccc3c12	93.93

Prompt: Return reported Growth percent. Input compound: "O=c1c2cc(Cl)ccc2sc2c(NCc3ccccc3)nc3ccccc3c12"
Completion: 75.71

Prompt: Return reported Growth percent. Input compound: "O=c1c2cc(Cl)ccc2sc2c(NCCN3CCOCC3)nc3ccccc3c12"
Completion: 76.66

Prompt: Return reported Growth percent. Input compound: "O=c1c2cc(Cl)ccc2sc2c(NCc3ccc4c(c3)OCO4)nc3ccccc3c12"
Completion: 78.43

Prompt: Return reported Growth percent. Input compound: "CN(C)CCCNc1nc2ccccc2c2c(=O)c3cc(Cl)ccc3sc12"
Completion: 98.76
